Please go through the items and note down their MRT.
- Protocol details: Determination of pharmacokinetic parameters following intravenous and oral administration (rats)
- Assay type: in vivo, male Wistar rats
- Test context: male, Wistar, rat, plasma, iv, intravenous administration in rats; read-out: MRT
Provide the reading as a plain figure in h.

Entry Cc1cc(OCc2c(F)ccc(F)c2F)c2nc(C)c(C(=O)NCC(C)(C)N)n2c1 [Example 276] ; MRT = 4.5

Entry Cc1cc(OCc2c(F)cccc2F)c2nc(C)c(C(=O)NCC(C)(N)CCC(F)(F)F)n2c1 (single isomer, unassigned) [Example 408] ; MRT = 4.7

Entry Cc1nc2c(OCc3c(F)cccc3F)cc(C(F)F)cn2c1C(=O)NCC(C)(N)CF (single isomer, unassigned; enantiomer a) [Example 291] ; MRT = 5.7

Entry Cc1nc2c(OCc3c(F)cccc3F)cc(Cl)cn2c1C(=O)NCC(C)(C)N [Example 73] ; MRT = 11.8

Entry CCC(C)(N)CNC(=O)c1c(C)nc2c(OCc3c(F)cccc3F)cc(C(F)F)cn12 (single isomer, unassigned; enantiomer a) [Example 287] ; MRT = 8.4

Entry CCCC(C)(N)CNC(=O)c1c(C)nc2c(OCc3c(F)ccc(F)c3F)cc(C)cn12 (single isomer, unassigned) [Example 295] ; MRT = 8.8

Entry Cc1nc2c(OCc3c(F)cccc3F)cc(Cl)cn2c1C(=O)NCC(N)C(C)C (single isomer, unassigned) [Example 211] ; MRT = 6.6

Entry CCC(C)(N)CNC(=O)c1c(C)nc2c(OCc3c(F)ccc(F)c3F)cc(C)cn12 (single isomer, unassigned; enantiomer a) [Example 274] ; MRT = 8.4

Entry CCCC(C)(N)CNC(=O)c1c(C)nc2c(OCc3c(F)cccc3F)cc(C(F)F)cn12 (single isomer, unassigned; enantiomer b) [Example 289] ; MRT = 6.8

Entry C#Cc1cc(OCc2c(F)cccc2F)c2nc(C)c(C(=O)NCC(C)(N)CCC)n2c1 (stereo not drawn) [Example 356] ; MRT = 13.9

Entry CCCC(C)(N)CNC(=O)c1c(C)nc2c(OCc3c(F)cccc3F)cc(C3CC3)cn12 (single isomer, unassigned; enantiomer b) [Example 281] ; MRT = 6.9

Entry Cc1cc(OCc2c(F)cccc2F)c2nc(C)c(C(=O)NCC(C)(N)C3CC3)n2c1 (single isomer, unassigned; enantiomer b) [Example 261] ; MRT = 4.7

Entry Cc1cc(OCc2c(F)cccc2F)c2nc(C)c(C(=O)NCC(C)(N)CF)n2c1 (single isomer, unassigned; enantiomer a) [Example 283] ; MRT = 3.9

Entry CCC(C)(N)CNC(=O)c1c(C)nc2c(OCc3c(F)cccc3F)cc(Cl)cn12 (single isomer, unassigned) [Example 194] ; MRT = 24.4

Entry CCCC(C)(N)CNC(=O)c1c(C)nc2c(OCc3cccc(F)c3F)cc(C)cn12 (racemic) [Example 303] ; MRT = 8.2

Entry Cc1cc(OCc2c(F)cccc2F)c2nc(C)c(C(=O)NC[C@H]3CCCCN3)n2c1 [Example 173] ; MRT = 3.9

Entry CCC(C)(N)CNC(=O)c1c(C)nc2c(OCc3c(F)cccc3F)cc(OC)cn12 (single isomer, unassigned; enantiomer a) [Example 279] ; MRT = 2.9

Entry Cc1cc(OCc2c(F)cccc2F)c2nc(C)c(C(=O)NCC3(N)CCCCC3)n2c1 [Example 307] ; MRT = 9.8

# credit: patent US20150274719A1
